systemUnderTest: Fuc(a1-2)[Gal(a1-3)]Gal(b1-3)GlcNAc
assayOverview: glycan array binding signal (z-score within array); higher = stronger binding
experimentalContext: glycan notation: IUPAC condensed, linker removed
About 410 targets per protein were measured; listed, in parts, are those with the strongest signals and a random draw of the rest.
Please use YES whenever glycan array binding signal (z-score) is not below -0.02, and NO whenever it is.

Worked cases, answers included:
>>> cat("UDA (Urtica dioica), P11218 (protein) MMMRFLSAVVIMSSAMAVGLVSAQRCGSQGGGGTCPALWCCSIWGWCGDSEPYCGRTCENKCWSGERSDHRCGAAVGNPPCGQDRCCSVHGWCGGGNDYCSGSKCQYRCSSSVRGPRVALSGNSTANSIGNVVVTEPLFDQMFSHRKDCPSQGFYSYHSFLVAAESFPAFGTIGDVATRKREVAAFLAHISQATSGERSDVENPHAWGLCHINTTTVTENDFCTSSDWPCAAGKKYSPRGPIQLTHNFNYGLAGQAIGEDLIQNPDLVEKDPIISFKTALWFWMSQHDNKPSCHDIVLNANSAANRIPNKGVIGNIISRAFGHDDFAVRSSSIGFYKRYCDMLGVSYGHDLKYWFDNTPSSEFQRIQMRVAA")
"NO"
>>> cat("CD23 (Homo sapiens) (protein) MELQVSSGFVCNTCPEKWINFQRKCYYFGKGTKQWVHARYACDDMEGQLVSIHSPEEQDFLTKHASHTGSWIGLRNLDLKGEFIWVDGSHVDYSNWAPGEPTSRSQGEDCVMMRGSGRWNDAFCDRKLGAWVCDRLATCTPPASEGSAESMGPDSRPDPDGRLPTPSAPLHS")
"NO"
>>> cat("Morniga (Morus nigra) (protein) MAGTSTNTQTTGTSQTVEVGLWGGPGGNAWDDGSYTGIREINLSHGDAIGAFSVIYDLNGQPFTGPTHPGNEPSFKTVKITLDFPNEFLVSVSGYTGVLPRLATGKDVIRSLTFKTNKKTYGPYGKEEGTPFSLPIENGLIVGFKGRSGFVVDAIGVHLS")
"NO"
>>> cat("CML1 (Coprinopsis cinerea) (protein) MAIFHTGSELFIITRGPGKLTLLTWGGLNNLRSVIGAIPTENTGVTKWAVSFSHNYTRFSFIWEGQGEACYQIGNGLTRSPVGRSWSSSSTIHWGSSTVITEDVTSVVPGAVNRDKVTTAYALPDNL")
"YES"
>>> cat("HML-Native (Hypnea musciformis), P84871 (protein) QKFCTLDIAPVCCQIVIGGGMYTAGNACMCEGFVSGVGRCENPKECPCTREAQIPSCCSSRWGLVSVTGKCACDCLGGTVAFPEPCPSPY")
"NO"
>>> cat("AT1G15820(NC) (Arabidopsis thaliana) (protein) MAMAVSGAVLSGLGSSFLTGGKRGATALASGVGDAIAPFSFGSLLGTQLLLMGWVESKRWVDFFNPDSQSVEWATPWSKTAENFANYTGDQGYPGGRFFDPLGLAGKNRDGVYEPDFEKLERLKLAEIKHSRLAMVAMLIFYFEAGQGKTPLGALGL")
"NO"
>>> cat("Tim-4 (Mus musculus), Q6U7R4 (protein) MSKGLLLLWLVTELWWLYLTPAASEDTIIGFLGQPVTLPCHYLSWSQSRNSMCWGKGSCPNSKCNAELLRTDGTRIISRKSTKYTLLGKVQFGEVSLTISNTNRGDSGVYCCRIEVPGWFNDVKKNVRLELRRATTTKKPTTTTRPTTTPYVTTTTPELLPTTVMTTSVLPTTTPPQTLATTAFSTAVTTCPSTTPGSFSQETTKGSAFTTESETLPASNHSQRSMMTISTDIAVLRPTGSNPGILPSTSQLTTQKTTLTTSESLQKTTKSHQINSRQTILIIACCVGFVLMVLLFLAFLLRGKVTGANCLQRHKRPDNTEDSDSVLNDMSHGRDDEDGIFTL")
"YES"
>>> cat("Gal 4 (Mus musculus), P56470 (protein) MAYVPAPGYQPTYNPTLPYYQPIPGGLNVGMSVYIQGVASEHMKRFFVNFVVGQDPGSDVAFHFNPRFDGWDKVVFNTLQGGKWGSEERKRSMPFKKGAAFELVFIVLAEHYKVVVNGNPFYEYGHRLPLQMVTHLQVDGDLQLQSINFIGGQPLRPQGPPMMPPYPGPGHCHQQLNSLPTMEGPPTFNPPVPYFGRLQGGLTARRTIIIKGYVPPTGKSFAINFKVGSSGDIALHINPRMGNGTVVRNSLLNGSWGSEEKKITHNPFGPGQFFDLSIRCGLDRFKVYANGQHLFDFAHRLSAFQRVDTLEIQGDVTLSYVQI")
"YES"

Please find the next binder below.
QUERY: Form field: glycan array binding signal (z-score) at least -0.02? Entry: CLEC5A (Homo sapiens), Q9NY25 (protein) MNWHMIISGLIVVVLKVVGMTLFLLYFPQIFNKSNDGFTTTRSYGTVSQIFGSSSPSPNGFITTRSYGTVCPKDWEFYQARCFFLSTSESSWNESRDFCKGKGSTLAIVNTPEKLKFLQDITDAEKYFIGLIYHREEKRWRWINNSVFNGNVTNQNQNFNCATIGLTKTFDAASCDISYRRICEKNAK
RESULT: YES
